Measured values drawn from patent US9403806B1 for this set.

# method.description: in vitro
# test.settings: PAMPA
measure.name: Papp (×10⁻⁶ cm/s)
# number only, unit ×10⁻⁶ cm/s dropped from output

// below: answered molecules
molecule | Papp (×10⁻⁶ cm/s)
CNC(=C[N+](=O)[O-])NCCSCc1ccc(CN(C)C)o1 [Ranitidine] | 0.26
Clc1cccc(Cl)c1N=C1NCCN1 [Clonidine, reference compound] | 7.95

Turning now to a further record.
**Q:** For the molecule shown here, Cc1noc(C2CCCNC2)n1 (racemic) [Compound 3] , give the reported Papp.
**A:** 2.56

----------
# target.or.system: human muscarinic M3 receptors (Homo sapiens)
# Construct: host or cells: A9L cells
# Sequence (P20309 whole entry): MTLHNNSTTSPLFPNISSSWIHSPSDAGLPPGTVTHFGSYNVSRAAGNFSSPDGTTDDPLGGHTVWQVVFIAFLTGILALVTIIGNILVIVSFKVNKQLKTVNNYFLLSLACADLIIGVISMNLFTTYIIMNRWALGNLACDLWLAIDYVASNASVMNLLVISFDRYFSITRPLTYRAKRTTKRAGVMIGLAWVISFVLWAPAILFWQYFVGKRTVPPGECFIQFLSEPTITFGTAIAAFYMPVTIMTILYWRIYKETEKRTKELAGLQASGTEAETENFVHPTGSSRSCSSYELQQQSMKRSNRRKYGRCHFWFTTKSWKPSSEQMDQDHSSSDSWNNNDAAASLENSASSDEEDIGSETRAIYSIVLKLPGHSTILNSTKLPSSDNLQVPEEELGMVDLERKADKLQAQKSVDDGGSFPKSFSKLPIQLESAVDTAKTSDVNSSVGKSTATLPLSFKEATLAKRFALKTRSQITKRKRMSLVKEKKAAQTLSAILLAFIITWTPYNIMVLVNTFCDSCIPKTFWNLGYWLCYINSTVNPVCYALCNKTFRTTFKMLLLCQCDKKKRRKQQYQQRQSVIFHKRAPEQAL
# method.description: IP production in A9L cells with human M3 receptors (IPOne TR-FRET), Example 28
# Type: cell-based
# test.settings: percentage of maximal stimulation by carbachol
measure.name: huM3/A9L Smax (%)
# number only, unit % dropped from output

// below: answered compounds
compound | huM3/A9L Smax / %
[2H]C([2H])([2H])c1noc(C2CCCNC2)n1 (stereo not drawn) | 60
Cc1noc(C2CCNC2)n1 (stereo not drawn) | 60

**Q:** For the compound shown here, c1nsc(C2CCCNC2)n1 (stereo not drawn) [Compound 12b, 5-(piperidin-3-yl)-1,2,4-thiadiazol] , give the reported huM3/A9L Smax.
**A:** 60
